These data points were gathered from ChEMBL document CHEMBL5143569.

Listed here: compounds with reported pIC50 for UniProt P18031.
Sequence (P18031 whole entry): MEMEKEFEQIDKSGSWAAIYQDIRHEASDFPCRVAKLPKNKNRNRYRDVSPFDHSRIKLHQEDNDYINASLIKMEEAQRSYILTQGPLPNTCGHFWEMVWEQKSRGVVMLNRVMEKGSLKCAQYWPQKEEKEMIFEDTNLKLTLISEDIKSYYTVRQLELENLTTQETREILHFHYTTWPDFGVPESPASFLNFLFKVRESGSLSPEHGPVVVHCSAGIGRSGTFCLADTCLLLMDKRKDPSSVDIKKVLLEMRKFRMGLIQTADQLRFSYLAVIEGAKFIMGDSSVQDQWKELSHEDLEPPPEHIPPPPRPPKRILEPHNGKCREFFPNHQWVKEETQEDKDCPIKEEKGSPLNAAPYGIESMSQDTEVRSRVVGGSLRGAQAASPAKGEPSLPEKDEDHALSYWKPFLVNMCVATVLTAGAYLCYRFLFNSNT
pIC50: −log10 of the molar value.
quantity: pIC50

{"structure": "CC1(N)CCN(c2cnc(-c3cccc(Cl)c3Cl)c(N)n2)CC1", "quantity": "pIC50", "observed result": "< 4.00"}
{"structure": "CC1(CN)CCN(c2cnc(Sc3cccc(Cl)c3Cl)c(N)n2)CC1", "quantity": "pIC50", "observed result": "< 4.00"}

---

biological target: UniProtKB Q06124
# label = condition met if IC50 < 0.7 µM else condition not met

{"structure": "CC1(N)CCN(c2cnc(Sc3ccccc3F)c(N)n2)CC1", "category": "condition met"}
{"structure": "CC1(N)CCN(c2cnc(Sc3ccccc3Br)c(N)n2)CC1", "category": "condition met"}
{"structure": "CC1(N)CCN(c2cnc(Sc3cccc(Cl)c3)c(N)n2)CC1", "category": "condition not met"}
{"structure": "NCCC1CCN(c2cnc(-c3cccc(Cl)c3Cl)c(N)n2)CC1", "category": "condition not met"}
{"structure": "CN(CCN)c1cnc(-c2cccc(Cl)c2Cl)c(N)n1", "category": "condition not met"}
{"structure": "Nc1nc(N2CCC(N)CC2)cnc1-c1cccc(Cl)c1Cl", "category": "condition not met"}
{"structure": "CC1(N)CCN(c2cnc(Sc3ccc(Cl)cc3)c(N)n2)CC1", "category": "condition not met"}
{"structure": "CC1(N)CCN(c2cnc(Sc3ccccc3)c(N)n2)CC1", "category": "condition not met"}
{"structure": "CNC1CCN(c2cnc(-c3cccc(Cl)c3Cl)c(N)n2)CC1", "category": "condition not met"}
{"structure": "CC1(N)CCN(c2cnc(Sc3cccc4ccccc34)c(N)n2)CC1", "category": "condition met"}

---

Listed here: compounds with reported IC50 for Tyrosine-protein phosphatase non-receptor type 6 (Homo sapiens, UniProt P29350).

{"structure": "CC1(N)CCN(c2cnc(-c3cccc(Cl)c3Cl)c(N)n2)CC1", "IC50": "> 100 µM"}
{"structure": "CC1(CN)CCN(c2cnc(Sc3cccc(Cl)c3Cl)c(N)n2)CC1", "IC50": "> 100 µM"}

---

target: Tyrosine-protein phosphatase non-receptor type 11 (Homo sapiens, UniProt Q06124)
Sequence (Q06124 whole entry): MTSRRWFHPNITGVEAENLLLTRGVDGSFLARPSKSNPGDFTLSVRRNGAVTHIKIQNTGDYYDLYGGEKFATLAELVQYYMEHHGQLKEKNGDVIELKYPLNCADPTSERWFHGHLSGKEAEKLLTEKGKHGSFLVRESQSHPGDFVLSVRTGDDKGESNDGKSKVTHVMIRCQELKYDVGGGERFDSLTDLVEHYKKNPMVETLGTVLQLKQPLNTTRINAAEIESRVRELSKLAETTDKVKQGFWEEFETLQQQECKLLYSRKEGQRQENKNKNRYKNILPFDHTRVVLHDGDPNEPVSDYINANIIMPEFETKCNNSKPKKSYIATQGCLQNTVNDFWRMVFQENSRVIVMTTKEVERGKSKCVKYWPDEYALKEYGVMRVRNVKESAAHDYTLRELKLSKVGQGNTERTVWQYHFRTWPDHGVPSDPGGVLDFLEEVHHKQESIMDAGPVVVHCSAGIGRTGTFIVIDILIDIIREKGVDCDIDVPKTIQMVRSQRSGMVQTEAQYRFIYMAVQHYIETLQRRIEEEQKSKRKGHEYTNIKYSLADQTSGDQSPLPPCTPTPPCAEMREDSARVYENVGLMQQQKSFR
pIC50: −log10 of the molar value.
Lab note: anything with pIC50 at or over 6 counts as Condition met; the rest go in Condition not met.

{"structure": "CC1(N)CCN(c2cnc(SCc3ccccc3)c(N)n2)CC1", "assayed target": "Tyrosine-protein phosphatase non-receptor type 11 (Homo sapiens, UniProt Q06124)", "category": "Condition not met"}
{"structure": "CC1(N)CCN(c2cnc(-c3ccc(C#N)cc3)c(N)n2)CC1", "assayed target": "Tyrosine-protein phosphatase non-receptor type 11 (Homo sapiens, UniProt Q06124)", "category": "Condition not met"}
{"structure": "CC1(N)CCN(c2cnc(-c3cccc(F)c3F)c(N)n2)CC1", "assayed target": "Tyrosine-protein phosphatase non-receptor type 11 (Homo sapiens, UniProt Q06124)", "category": "Condition not met"}
{"structure": "CC1(N)CCN(c2cnc(Sc3cccc(Cl)c3Cl)c(N)n2)CC1", "assayed target": "Tyrosine-protein phosphatase non-receptor type 11 (Homo sapiens, UniProt Q06124)", "category": "Condition met"}
{"structure": "Cc1ccccc1Sc1ncc(N2CCC(C)(N)CC2)nc1N", "assayed target": "Tyrosine-protein phosphatase non-receptor type 11 (Homo sapiens, UniProt Q06124)", "category": "Condition not met"}

---

Listed here: compounds with reported pIC50 for Tyrosine-protein phosphatase non-receptor type 11 (Homo sapiens, UniProt Q06124).
pIC50: −log10 of the molar value.

{"structure": "CC1(O)CCN(c2cnc(-c3cccc(Cl)c3Cl)c(N)n2)CC1", "assayed target": "Tyrosine-protein phosphatase non-receptor type 11 (Homo sapiens, UniProt Q06124)", "pIC50": 4.86}
{"structure": "NCC1CCN(c2cnc(Sc3cccc(Cl)c3Cl)c(N)n2)CC1", "assayed target": "Tyrosine-protein phosphatase non-receptor type 11 (Homo sapiens, UniProt Q06124)", "pIC50": 6.96}
{"structure": "CC1(N)CCN(c2cnc(Sc3ccccc3C(F)(F)F)c(N)n2)CC1", "assayed target": "Tyrosine-protein phosphatase non-receptor type 11 (Homo sapiens, UniProt Q06124)", "pIC50": 6.75}
{"structure": "Nc1nc(N2CCC(O)CC2)cnc1-c1cccc(Cl)c1Cl", "assayed target": "Tyrosine-protein phosphatase non-receptor type 11 (Homo sapiens, UniProt Q06124)", "pIC50": 5.21}
{"structure": "CC1(N)CCN(c2cnc(SCc3ccccc3Cl)c(N)n2)CC1", "assayed target": "Tyrosine-protein phosphatase non-receptor type 11 (Homo sapiens, UniProt Q06124)", "pIC50": 5.25}
{"structure": "Nc1nc(N2CC[C@H](N)C2)cnc1-c1cccc(Cl)c1Cl", "assayed target": "Tyrosine-protein phosphatase non-receptor type 11 (Homo sapiens, UniProt Q06124)", "pIC50": 5.69}
{"structure": "Cc1ccc(-c2ncc(N3CCC(C)(N)CC3)nc2N)cc1", "assayed target": "Tyrosine-protein phosphatase non-receptor type 11 (Homo sapiens, UniProt Q06124)", "pIC50": 5.04}
{"structure": "COc1cccc(-c2nnc3n(Cc4ccc(C(=O)N5CCC[C@H]5C(=O)O)cc4Cl)c(=O)c4ccccc4n23)c1O", "assayed target": "Tyrosine-protein phosphatase non-receptor type 11 (Homo sapiens, UniProt Q06124)", "pIC50": 4.22}
{"structure": "COc1ccccc1Sc1ncc(N2CCC(C)(N)CC2)nc1N", "assayed target": "Tyrosine-protein phosphatase non-receptor type 11 (Homo sapiens, UniProt Q06124)", "pIC50": 7.10}
{"structure": "CC1(N)CCN(c2cnc(SC3CCCCC3)c(N)n2)CC1", "assayed target": "Tyrosine-protein phosphatase non-receptor type 11 (Homo sapiens, UniProt Q06124)", "pIC50": 5.02}
{"structure": "CC1(N)CCN(c2cnc(Sc3ccccc3Cl)c(N)n2)CC1", "assayed target": "Tyrosine-protein phosphatase non-receptor type 11 (Homo sapiens, UniProt Q06124)", "pIC50": 7.01}
